assay: Ratio of [3H]- DA uptake to DAT binding was determined; format: functional
quantity.kind: Selectivity ratio
Write the value as a bare number.

Some solved cases for reference:
- Fc1ccc(CN2CCC(CNCC(c3ccccc3)c3ccccc3)CC2)cc1: 2.5
- N#Cc1ccc(CN[C@H]2CC[C@@H](C(c3ccccc3)c3ccccc3)NC2)cc1: 0.8

Inquiry: // returns reported Selectivity ratio for input "N#Cc1ccc(CN[C@@H]2CC[C@H](C(c3ccccc3)c3ccccc3)NC2)cc1"
Reply text: 1.4

Inquiry: // returns reported Selectivity ratio for input "c1ccc(C(c2ccccc2)[C@H]2CC[C@@H](NCc3cc4ccccc4[nH]3)CN2)cc1"
Reply text: 0.53
